Known % TE mean ± SD, 2nd evaluation, TCO-KS254 of a selection of molecules
# Method: Trapping of TCO-KS254 from PBS solution by tetrazine-agarose columns, eluate titrated with [111In]8
# Condition set: repeated 9 days after first evaluation, columns stored at 4° C., n = 2
Measure: % TE mean ± SD, 2nd evaluation, TCO-KS254 (%)

- Molecule: "NCc1ccc(-c2nncnn2)cc1.O=C(O)C(F)(F)F [Tetrazine 3]"
  Value measured: 78
- Molecule: "NCCOCCOCCOCCOCCOCCOCCOCCOCCOCCOCCOCCNC(=O)CCCC(=O)NCc1ccc(-c2nncnn2)cc1 [Tetrazine 4]"
  Value measured: 56
- Molecule: "NCCCCCCCC(=O)Nc1ccc(-c2nnc(-c3ccccn3)nn2)nc1.O=C(O)C(F)(F)F [Tetrazine 5]"
  Value measured: 67
- Molecule: "NCCOCCOCCOCCOCCOCCOCCOCCOCCOCCOCCOCCNC(=O)CCCC(=O)Nc1ccc(-c2nnc(-c3ccccn3)nn2)nc1.O=C(O)C(F)(F)F [Tetrazine 6]"
  Value measured: 50

###

# System: TCO-CC49
# Method: Trapping of TCO-CC49 from PBS solution by tetrazine-agarose columns, eluate titrated with [111In]8
# Condition set: trapping efficiency, single pass, 100 μg/mL in PBS, 0.5 mL/min, n = 2

- Record smiles: "NCc1ccc(-c2nncnn2)cc1.O=C(O)C(F)(F)F"
  Tested system: "TCO-CC49"
  % TE mean ± SD, 1st evaluation, TCO-CC49: "99 ± 1^ %"
- Record smiles: "NCCCCCCCC(=O)Nc1ccc(-c2nnc(-c3ccccn3)nn2)nc1.O=C(O)C(F)(F)F"
  Tested system: "TCO-CC49"
  % TE mean ± SD, 1st evaluation, TCO-CC49: "98 ± 0.4%"
- Record smiles: "NCCOCCOCCOCCOCCOCCOCCOCCOCCOCCOCCOCCNC(=O)CCCC(=O)NCc1ccc(-c2nncnn2)cc1"
  Tested system: "TCO-CC49"
  % TE mean ± SD, 1st evaluation, TCO-CC49: "96 ± 6^ %"
- Record smiles: "NCCOCCOCCOCCOCCOCCOCCOCCOCCOCCOCCOCCNC(=O)CCCC(=O)Nc1ccc(-c2nnc(-c3ccccn3)nn2)nc1.O=C(O)C(F)(F)F"
  Tested system: "TCO-CC49"
  % TE mean ± SD, 1st evaluation, TCO-CC49: "93 ± 7^ %"

Attribution: patent US20230310643A1
